Source listed as paper PMC11931385.

Target: T1, Rb^P R741H (human, UniProt P06400 380-788, R741H)
T1 construct: also called variant 69
T1 sequence (looked up): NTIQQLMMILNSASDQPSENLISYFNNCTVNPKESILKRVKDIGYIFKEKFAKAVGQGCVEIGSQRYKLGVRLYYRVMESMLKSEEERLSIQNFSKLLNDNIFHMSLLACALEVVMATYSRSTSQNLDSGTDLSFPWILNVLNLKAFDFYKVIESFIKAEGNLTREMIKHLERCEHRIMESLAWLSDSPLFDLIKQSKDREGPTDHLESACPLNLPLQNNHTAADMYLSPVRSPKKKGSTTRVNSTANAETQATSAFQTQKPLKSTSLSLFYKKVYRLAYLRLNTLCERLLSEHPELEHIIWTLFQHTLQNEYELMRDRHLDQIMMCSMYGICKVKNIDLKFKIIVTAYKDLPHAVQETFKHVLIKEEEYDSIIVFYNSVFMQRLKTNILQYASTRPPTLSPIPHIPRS
Assay: fluorescence polarisation; 25 °C; unlabeled Rb^P titrated against 1.5 nM TMR-E2F1^TD or 7.5 nM TMR-E7^LxCxE; 25 mM Tris pH 8.0, 200 mM NaCl, 1 mM DTT, 0.1% Tween-20; 2 min incubation; quadratic fit; apparent Kd for the variants, Kd for WT
Conditions: both partners purified
pKd: −log10 of the molar value. No end group written: not given here. TMR = tetramethyl rhodamine dye
# Lookup of reported pKd keyed by entry
Endpoint Name: pKd

Binder | Endpoint Name | Observed Measurement
DLYCYEQLN (also: TMR label, position not given here, source: synthetic peptide, bought: GenScript) [TMR-E7^LxCxE, LxCxE peptide of the E7 oncoprotein from HPV] | pKd | 7.74
{TMR}-GEGIRDLFDCDFGDLTPLD (also called E2F^TD; source: synthetic peptide, bought: GenScript) [TMR-E2F1^TD, peptide of the E2F1 transactivation domain] | pKd | 7.68
